A collection of compounds and their measured IC50
Target: first bromodomain (BrD1) of human BRD4 (Homo sapiens, UniProt O60885)
Construct: the first bromodomain (BrD1) of human BRD4; poly-His (cleaved yes)
Experiment: Fluorescence anisotropy binding assay (competition with FITC-labeled MS417 probe)
Conditions: FITC-MS417 probe 80 nM, PBS pH 7.4, 1 hour, 25° C., read-out: BRD4_1 IC50

// solved cases for IC50 follow
STRUCTURE: CC1=C(Nc2ccc(C(=O)NC3CCCCC3)cc2C)CCC1=O
IC50: 1 to 10 µM
//
STRUCTURE: COc1ccc(NC(=O)c2ccc(NC3=C(C)C(=O)CC3)c(Br)c2)cc1
IC50: < 1 µM
//
STRUCTURE: COc1cc(C(=O)NC2CCCCC2)ccc1NC1=C(C)C(=O)CC1
IC50: 1 to 10 µM
//
STRUCTURE: CC1=C(Nc2cc(NC(=O)C3CCCCC3)ccc2Cl)CCC1=O
IC50: < 1 µM
//
STRUCTURE: COc1ccccc1NC(=O)c1ccc(NC2=C(C)C(=O)CC2)c(OC)c1
IC50: 1 to 10 µM
//
STRUCTURE: CC1=C(Nc2cc(C(=O)Nc3cc(C(=O)O)ccc3C)ccc2Cl)CCCC1=O
IC50: 1 to 10 µM
//
STRUCTURE: CC1=C(N[C@H]2CC[C@H](C(=O)Nc3ccc(C)cc3)CC2)CCC1=O
IC50: > 10 µM
//
STRUCTURE: CC1=C(Nc2ccc(C(=O)NC3CCCCC3)cc2Cl)CCC1=O
IC50: < 1 µM

Kindly consider the entry below.
Reported IC50 ( "COc1ccccc1NC(=O)c1ccc(NC2=C(C)C(=O)CCC2)c(Cl)c1" ) = < 1 µM
